STUDY TARGET: UniProt O43613
Sequence (O43613 whole entry): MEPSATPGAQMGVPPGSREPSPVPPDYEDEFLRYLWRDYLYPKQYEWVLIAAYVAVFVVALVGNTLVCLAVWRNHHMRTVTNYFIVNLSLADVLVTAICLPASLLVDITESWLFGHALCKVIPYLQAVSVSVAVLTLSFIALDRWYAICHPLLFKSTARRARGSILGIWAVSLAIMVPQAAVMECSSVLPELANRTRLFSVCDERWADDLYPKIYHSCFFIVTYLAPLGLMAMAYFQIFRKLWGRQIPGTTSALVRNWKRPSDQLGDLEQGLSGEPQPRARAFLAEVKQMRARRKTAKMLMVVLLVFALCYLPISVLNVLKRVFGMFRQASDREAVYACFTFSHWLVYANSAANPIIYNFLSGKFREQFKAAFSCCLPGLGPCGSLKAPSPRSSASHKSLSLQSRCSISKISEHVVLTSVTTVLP
ASSAY NOTES: In vitro assay: intracellular calcium measurements (FLIPR), antagonistic activity
RUN PARAMETERS: CHO cells expressing human orexin-1 receptor, orexin-A agonist, geometric mean, read-out: IC50 Ox1
The following compounds are shown together with reported IC50 values.
PARAMETER MEASURED: IC50 (nM)

> print(dat)
                                    compound    study.target  readout.units  quantitative.result
 1  COc1ccc(-n2nccn2)c(C(=O)N2CCC[C@H]2c2nc3ccc(OC)cc3[nH]2)c1 [Ex. 1.158]  UniProt O43613             nM                  538
 2  Cc1ccc2[nH]c([C@]3(C)CCCN3C(=O)c3ccccc3-c3cccc(F)c3)nc2c1C [Ex. 5.116]  UniProt O43613             nM                   39
 3  C=C1C[C@@H](c2nc3ccc(OC)cc3[nH]2)N(C(=O)c2cc(C)c(C)cc2-n2nccn2)C1 [Ex. 6.139]  UniProt O43613             nM                  137
 4  CCn1c([C@]2(C)CCCN2C(=O)c2cc(C)ccc2-c2ccc(C)cc2)nc2cc(C)c(C)cc21 [Ex. 7.38]  UniProt O43613             nM                    8
 5  C=C1C[C@@H](c2nc3ccc(Cl)c(C)c3[nH]2)N(C(=O)c2cc(C(F)(F)F)ccc2-n2nccn2)C1 [Ex. 6.129]  UniProt O43613             nM                  215
 6  CSc1ccc2nc([C@@H]3CCCN3C(=O)c3cc(Cl)ccc3-n3nccn3)[nH]c2c1 [Ex. 1.149]  UniProt O43613             nM                  143
 7  COc1ccc2[nH]c([C@@H]3CCCN3C(=O)c3nc(C)sc3-c3cccc(Cl)c3)nc2c1 [Ex. 1.9]  UniProt O43613             nM                  337
 8  Cc1ccc(-c2ccc(F)cc2)c(C(=O)N2CCC[C@@]2(C)c2nc3c(C)c(C)ccc3[nH]2)c1 [Ex. 5.115]  UniProt O43613             nM                   22
 9  Cc1ccc(C(=O)N2CC[C@H](C)[C@H]2c2nc3cc(Cl)c(C)cc3[nH]2)c(-n2nccn2)c1 [Ex. 4.72]  UniProt O43613             nM                    4
10  Cc1ccc(-n2nccn2)c(C(=O)N2CCC[C@H]2c2nc3cc(Cl)ccc3[nH]2)c1 [Ex. 1.3]  UniProt O43613             nM                  265
11  COc1cccc(-c2sc(C)nc2C(=O)N2CCC[C@@]2(C)c2nc3cc(OC(F)(F)F)ccc3[nH]2)c1 [Ex. 5.247]  UniProt O43613             nM                   10
12  Cc1nc(C(=O)N2CC[C@H](C)[C@H]2c2nc3c(C(F)(F)F)cccc3[nH]2)c(-c2cccc(Cl)c2)s1 [Ex. 4.19]  UniProt O43613             nM                    2
13  Cc1ccc(-c2cccnc2)c(C(=O)N2CC[C@H](C)[C@H]2c2nc3cc(Cl)c(C)cc3[nH]2)c1 [Ex. 4.104]  UniProt O43613             nM                   14
14  Cc1c(Cl)ccc2[nH]c([C@@H]3[C@@H](C)CCN3C(=O)c3cc(Cl)ccc3-n3nccn3)nc12 [Ex. 4.60]  UniProt O43613             nM                    2
15  C[C@@]1(c2nc3cc(C(F)(F)F)ccc3[nH]2)CCCN1C(=O)c1cc(F)ccc1-n1nccn1 [Ex. 5.165]  UniProt O43613             nM                   65
16  C=C1C[C@@H](c2nc3ccc(OC)cc3[nH]2)N(C(=O)c2nc(C)sc2-c2ccc(C)c(C)c2)C1 [Ex. 6.46]  UniProt O43613             nM                   30
17  CO[C@@H]1C[C@@H](c2nc3ccc(Cl)c(C)c3[nH]2)N(C(=O)c2cc(Cl)ccc2-n2nccn2)C1 [Ex. 3.10]  UniProt O43613             nM                   45
18  COc1ccc(-c2cccc(C#N)c2)c(C(=O)N2CCC[C@@]2(C)c2nc3c(C)c(Cl)ccc3[nH]2)c1F [Ex. 5.307]  UniProt O43613             nM                   20
19  COc1cccc(-c2ccc(C)cc2C(=O)N2CCC[C@@]2(C)c2nc3cc(C)c(C)cc3n2C)c1 [Ex. 7.42]  UniProt O43613             nM                   38
20  COc1cccc(-c2ccc(C)cc2C(=O)N2CCC[C@@]2(C)c2nc3cc(C(F)(F)F)c(Cl)cc3[nH]2)c1 [Ex. 5.149]  UniProt O43613             nM                   21
21  Cc1ccc(-n2nccn2)c(C(=O)N2CCC[C@@]2(C)c2nc3cc(Cl)c(Cl)cc3[nH]2)c1 [Ex. 5.7]  UniProt O43613             nM                    5
22  C[C@@]1(c2nc3cc(C(F)(F)F)ccc3[nH]2)CCCN1C(=O)c1ccccc1-n1nccn1 [Ex. 5.167]  UniProt O43613             nM                   91
23  C=C1C[C@@H](c2nc3cc(Cl)c(C(F)(F)F)cc3[nH]2)N(C(=O)c2c(-n3nccn3)ccc(C)c2F)C1 [Ex. 6.180]  UniProt O43613             nM                    5
24  C=C1C[C@@H](c2nc3cc(Cl)c(C(F)(F)F)cc3[nH]2)N(C(=O)c2c(C)cccc2-n2nccn2)C1 [Ex. 6.183]  UniProt O43613             nM                  127
25  COc1ccc2[nH]c([C@@H]3CCCN3C(=O)c3c(-n4nccn4)ccc(C)c3F)nc2c1 [Ex. 1.172]  UniProt O43613             nM                 1160
26  C=C1C[C@@H](c2nc3ccc(Cl)c(C)c3[nH]2)N(C(=O)c2nc(C)ccc2-n2nccn2)C1 [Ex. 6.127]  UniProt O43613             nM                   17
27  COc1ccc(-c2ccc(C)cc2C(=O)N2CCC[C@@]2(C)c2nc3c(C)c(C)ccc3[nH]2)cc1 [Ex. 5.112]  UniProt O43613             nM                   12
28  CO[C@H]1CN(C(=O)c2nc(C)sc2-c2cccc(Cl)c2)C(C)(c2nc3c(C)c(Cl)ccc3[nH]2)C1 (stereo partly drawn) [Ex. 3.27]  UniProt O43613             nM                    5
29  Cc1c(Br)cc2[nH]c([C@]3(C)CCCN3C(=O)c3ccccc3-c3ccccc3)nc2c1C [Ex. 5.269]  UniProt O43613             nM                   15
30  C=C1CC(c2nc3cccc(SC)c3[nH]2)N(C(=O)c2nc(C3CC3)sc2-c2cccc(C)c2)C1 (racemic) [Ex. 6.87]  UniProt O43613             nM                    1
